Values from patent US20260146035A1

Test system: phospho-MerTK in BaF3.MerTK tumors
Assay: In vivo Ba/F3 pMER ALISA assay
Conditions: 50 milligrams per kilogram, orally; single dose, tumors harvested 4 hours after; phospho-MerTK normalized to total MerTK
reported endpoint: % inhibition (%)
Numbers only, in %.

// solved cases for % inhibition follow
Cn1cc(-c2cnc(N)c(C(=O)N[C@H]3CCC[C@@H]3OCc3ccc(-c4ccc5c(c4)CCC[C@@H]5N4CCN(C[C@H](O)CO)CC4)cc3)c2)cn1 = 94
CN1CCN(C2CCCc3cc(-c4ccc(CO[C@H]5CCC[C@@H]5NC(=O)c5cc(-c6cnn(C)c6)cnc5N)cc4)ccc32)CC1 (stereo partly shown) = 67
Cn1cc(-c2cnc(N)c(C(=O)N[C@H]3CCC[C@@H]3OCc3ccc(-c4ccc5c(c4)C(C)(C)CC5N4CCN(CCO)CC4)cc3)c2)cn1 (stereo partly shown) = 58

Now for a further compound.
Look up % inhibition: Nc1ncc(-c2cccnc2F)cc1C(=O)N[C@H]1CCC[C@@H]1OCc1ccc(-c2ccc3c(c2)CCC[C@@H]3N2CCN(CCO)CC2)cc1
92

###

Molecular target: human MER (528-end) (Homo sapiens)
Construct: human MER (528-end); purchased Camnabio, Japan
Sequence (Q12866 528-999 limits assumed): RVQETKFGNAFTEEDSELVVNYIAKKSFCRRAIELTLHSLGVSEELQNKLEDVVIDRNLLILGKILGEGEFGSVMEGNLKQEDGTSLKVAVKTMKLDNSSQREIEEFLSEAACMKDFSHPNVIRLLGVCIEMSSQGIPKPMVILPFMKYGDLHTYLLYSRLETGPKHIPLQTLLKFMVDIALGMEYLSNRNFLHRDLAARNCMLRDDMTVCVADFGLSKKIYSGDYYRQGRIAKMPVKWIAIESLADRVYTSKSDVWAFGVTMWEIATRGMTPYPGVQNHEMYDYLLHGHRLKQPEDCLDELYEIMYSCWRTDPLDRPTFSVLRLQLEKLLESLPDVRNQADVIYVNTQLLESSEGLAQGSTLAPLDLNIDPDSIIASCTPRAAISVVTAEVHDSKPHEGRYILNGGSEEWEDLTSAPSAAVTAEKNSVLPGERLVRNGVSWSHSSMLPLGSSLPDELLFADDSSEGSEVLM
Test: HTRF kinase activity biochemical assay, MER
Settings: in vitro; read-out: HTRF MerTK IC50
reported endpoint: IC50

Cn1cc(-c2cnc(N)c(C(=O)N[C@H]3CCC[C@@H]3OCc3ccc(-c4ccc5c(c4)C(C)(C)C[C@@H]5N4CCN(CCO)CC4)cc3)c2)cn1 [Example 103] = < 10 nM

Now for a further molecule.
Notebook: pull reported IC50 for human MER (528-end) (Homo sapiens), entry Cn1cc(-c2cnc(N)c(C(=O)N[C@H]3CCC[C@@H]3OCc3ccc(-c4ccc5c(c4)C(C)(C)CC5N4CCN(CCO)CC4)cc3)c2)cn1 (some centres unmarked) [Example 83]
< 10 nM

###

Molecular target: human AXL (473-end) (Homo sapiens, UniProt P30530)
Construct: human AXL (473-end); purchased SignalChem, Canada
Sequence (P30530 473-894 limits assumed): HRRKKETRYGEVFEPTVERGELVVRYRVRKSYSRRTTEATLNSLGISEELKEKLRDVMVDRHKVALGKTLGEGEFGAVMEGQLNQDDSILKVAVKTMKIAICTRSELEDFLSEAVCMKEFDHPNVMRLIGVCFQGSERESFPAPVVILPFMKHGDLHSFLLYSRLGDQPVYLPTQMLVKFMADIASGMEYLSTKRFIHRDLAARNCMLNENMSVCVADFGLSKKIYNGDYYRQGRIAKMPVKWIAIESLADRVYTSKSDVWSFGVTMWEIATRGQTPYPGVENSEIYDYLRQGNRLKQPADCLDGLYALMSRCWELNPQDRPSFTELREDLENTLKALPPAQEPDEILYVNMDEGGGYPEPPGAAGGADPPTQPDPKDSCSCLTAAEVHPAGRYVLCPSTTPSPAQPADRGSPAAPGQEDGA
Assay: HTRF kinase activity biochemical assay, AXL
Settings: 10 μM ATP, 30 minutes pre-incubation
pIC50: −log10 of the molar value.
reported endpoint: pIC50

CN1CCN(C2CC(C)(C)c3cc(-c4ccc(CO[C@H]5CCC[C@@H]5NC(=O)c5cc(-c6ccc(F)nc6)cnc5N)cc4)ccc32)CC1 (stereo partly drawn) [Example 94] = > 8.00
CC1(C)C[C@H](N2CCN(CCO)CC2)c2ccc(-c3ccc(CO[C@H]4CCC[C@@H]4NC(=O)c4cc(-c5ccc(F)nc5)cnc4N)cc3)cc21 [Example 104] = > 8.00
CC1(C)CC(N2CCN(CCO)CC2)c2ccc(-c3ccc(CO[C@H]4CCC[C@@H]4NC(=O)c4cc(-c5cccnc5F)cnc4N)cc3)cc21 (stereo partly drawn) [Example 119] = > 8.00
Cn1cc(-c2cnc(N)c(C(=O)N[C@H]3CCC[C@@H]3OCc3ccc(-c4ccc5c(c4)C(C)(C)CC5N4CCN(CCO)CC4)cc3)c2)cn1 (stereo partly drawn) [Example 83] = > 8.00
COc1ccnc(N)c1C(=O)N[C@H]1CCC[C@@H]1OCc1ccc(-c2ccc3c(c2)C(C)(C)CC3N2CCN(C)CC2)cc1 (stereo partly drawn) [Example 138] = > 8.00

State the recorded pIC50 for every item in the following list.
1. Nc1ncc(-c2cccnc2F)cc1C(=O)N[C@H]1CCC[C@@H]1OCc1ccc(-c2ccc3c(c2)OCCC3N2CCN(CCO)CC2)cc1 (stereo partly drawn) [Example 134]
2. Cc1ncc(-c2cnc(N)c(C(=O)N[C@H]3CCC[C@@H]3OCc3ccc(-c4ccc5c(c4)CC[C@@H]5N4CCN(CCO)CC4)cc3)c2)s1 [Example 172]
3. Cn1cc(-c2cnc(N)c(C(=O)N[C@H]3CCC[C@@H]3OCc3ccc(-c4ccc5[nH]ccc5c4)cc3)c2)cn1 [Example 68]
4. Nc1ncc(-c2cncs2)cc1C(=O)N[C@H]1CCC[C@@H]1OCc1ccc(-c2ccc3c(c2)CC[C@@H]3N2CCN(CCO)CC2)cc1 [Example 176]
5. COc1c(-c2cnn(C)c2)cnc(N)c1C(=O)N[C@H]1CCC[C@@H]1OCc1ccc(-c2ccc3c(c2)CC[C@@H]3N2CCN(C)CC2)cc1 [Example 157]
6. Cn1cc(-c2cnc(N)c(C(=O)N[C@H]3CCC[C@@H]3OCc3ccc(-c4ccc5c(cnn5C5CCN(CCO)CC5)c4)cc3)c2)cn1 [Example 111]

1. > 8.00
2. > 8.00
3. > 8.00
4. > 8.00
5. > 8.00
6. 6.00 to 7.00

###

Biological target: human TYRO3 (455-end) (Homo sapiens)
Construct: TYRO3 (455-end); purchased SignalChem, Canada
Sequence (Q06418 455-890 limits assumed): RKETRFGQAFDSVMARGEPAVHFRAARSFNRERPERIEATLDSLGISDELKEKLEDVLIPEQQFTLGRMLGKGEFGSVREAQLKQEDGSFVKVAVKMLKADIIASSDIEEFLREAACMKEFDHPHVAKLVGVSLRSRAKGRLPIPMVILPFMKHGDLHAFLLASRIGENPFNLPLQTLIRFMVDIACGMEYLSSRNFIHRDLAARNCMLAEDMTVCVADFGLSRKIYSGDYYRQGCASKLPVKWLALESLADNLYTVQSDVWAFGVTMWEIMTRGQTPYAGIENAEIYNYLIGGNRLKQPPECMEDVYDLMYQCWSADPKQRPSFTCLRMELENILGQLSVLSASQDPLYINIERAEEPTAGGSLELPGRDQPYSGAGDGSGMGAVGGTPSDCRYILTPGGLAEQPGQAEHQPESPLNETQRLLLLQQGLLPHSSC
Test: HTRF kinase activity biochemical assay, TYRO3
Details: 10 μM ATP, 30 minutes pre-incubation; read-out: HTRF TYRO IC50
pIC50: −log10 of the molar value.
Please go through the items and note down their pIC50.

State the recorded pIC50 for every item in the following list.
1. CN1CCN(C2CC(C)(C)c3cc(-c4ccc(CO[C@H]5CCC[C@@H]5NC(=O)c5cc(-c6cnn(C)c6)cnc5N)cc4)ccc32)CC1 (stereo partly drawn) [Example 93]
2. Cn1cc(-c2cnc(N)c(C(=O)N[C@H]3CCC[C@@H]3OCc3ccc(-c4ccc5c(cnn5C5CCN(CCO)CC5)c4)cc3)c2)cn1 [Example 111]
3. Nc1ncc(-c2cccnc2F)cc1C(=O)N[C@H]1CCC[C@@H]1OCc1ccc(-c2ccc3c(c2)CC[C@@H]3N2CCN(C(CO)CO)CC2)cc1 [Example 129]
4. Nc1ncc(-c2ccccn2)cc1C(=O)N[C@H]1CCC[C@@H]1OCc1ccc(-c2ccc3c(c2)CC[C@@H]3N2CCN(CCO)CC2)cc1 [Example 177]

> 8.00
< 6.00
< 6.00
7.00 to 8.00

State the recorded pIC50 for every item in the following list.
1. CC1(C)C[C@H](N2CCN(CCO)CC2)c2ccc(-c3ccc(CO[C@H]4CCC[C@@H]4NC(=O)c4cc(-c5ccc(F)nc5)cnc4N)cc3)cc21 [Example 104]
2. COc1cccc(-c2cnc(N)c(C(=O)N[C@H]3CCC[C@@H]3OCc3ccc(-c4ccc5c(c4)CC[C@@H]5N4CCN(CCO)CC4)cc3)c2)n1 [Example 178]

1. > 8.00
2. 7.00 to 8.00

###

Target: human AXL (473-end) (Homo sapiens, UniProt P30530)
Construct: human AXL (473-end); purchased SignalChem, Canada
Sequence (P30530 473-894 limits assumed): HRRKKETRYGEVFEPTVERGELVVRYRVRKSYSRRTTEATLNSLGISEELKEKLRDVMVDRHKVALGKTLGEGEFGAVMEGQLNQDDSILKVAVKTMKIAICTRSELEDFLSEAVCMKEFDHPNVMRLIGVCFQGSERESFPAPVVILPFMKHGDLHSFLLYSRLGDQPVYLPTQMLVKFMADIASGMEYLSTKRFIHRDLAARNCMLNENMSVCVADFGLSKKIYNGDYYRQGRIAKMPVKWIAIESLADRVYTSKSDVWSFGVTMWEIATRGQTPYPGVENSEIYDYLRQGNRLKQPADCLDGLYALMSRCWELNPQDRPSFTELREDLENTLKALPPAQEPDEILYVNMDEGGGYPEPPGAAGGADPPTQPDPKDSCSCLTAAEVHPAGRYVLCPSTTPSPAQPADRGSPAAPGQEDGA
Assay: HTRF kinase activity biochemical assay, AXL
Conditions: 10 μM ATP, 30 minutes pre-incubation
reported endpoint: IC50

// solved cases for IC50 follow
Cn1cc(-c2cnc(N)c(C(=O)N[C@H]3CCC[C@@H]3OCc3ccc(-c4cnc5c(c4)CCCN5C4CCN(CCO)CC4)cc3)c2)cn1 = < 0.01 µM
Nc1ncc(-c2ccc(F)nc2)cc1C(=O)N[C@H]1CCC[C@@H]1OCc1ccc(-c2ccc3c(ccn3C3CCN(CCO)CC3)c2)cc1 = 0.01 to 0.1 µM
Cn1cc(-c2cnc(N)c(C(=O)N[C@H]3COC[C@@H]3OCc3ccc(-c4ccc5c(ccn5C5CCN(CCO)CC5)c4)cc3)c2)cn1 = 0.01 to 0.1 µM
CN(CCC(O)CO)C1CCc2cc(-c3ccc(CO[C@H]4CCC[C@@H]4NC(=O)c4cc(-c5ccc(F)nc5)cnc4N)cc3)ccc21 (stereo partly drawn) = 0.1 to 1 µM
Cn1cc(-c2cnc(N)c(C(=O)N[C@H]3CCC[C@@H]3OCc3ccc(-c4ccc5c(c4)CC(F)(F)C5N4CCN(CCO)CC4)cc3)c2)cn1 (stereo partly drawn) = < 0.01 µM

State the recorded IC50 for every item in the following list.
1. CN1CCC(c2c[nH]c3cc(-c4ccc(CO[C@H]5CCC[C@@H]5NC(=O)c5cc(-c6cnn(C)c6)cnc5N)cc4)ccc23)CC1
2. Nc1ncc(-c2ccc(F)nc2)cc1C(=O)N[C@H]1COC[C@@H]1OCc1ccc(-c2ccc3c(ccn3C3CCN(CCO)CC3)c2)cc1
3. CCC1(C)CN(C2CCN(CCO)CC2)c2ccc(-c3ccc(CO[C@H]4CCC[C@@H]4NC(=O)c4cc(-c5cnn(C)c5)cnc4N)cc3)cc21 (mixture of isomers)

1. 0.1 to 1 µM
2. 0.01 to 0.1 µM
3. < 0.01 µM

State the recorded IC50 for every item in the following list.
1. Cn1cc(-c2cnc(N)c(C(=O)N[C@H]3CCC[C@@H]3OCc3ccc(-c4ccc5c(c4)CC(F)(F)[C@@H]5N4CCN(CCO)CC4)cc3)c2)cn1
2. CC1(C)C(=O)N(C2CCN(CCO)CC2)c2ccc(-c3ccc(CO[C@H]4CCC[C@@H]4NC(=O)c4cc(-c5ccc(F)nc5)cnc4N)cc3)nc21
3. CC1(C)C[C@@H](N2CCN(CCO)CC2)c2ccc(-c3ccc(CO[C@H]4CCC[C@@H]4NC(=O)c4cc(-c5cccnc5F)cnc4N)cc3)cc21
4. Cc1c(-c2cnc(N)c(C(=O)N[C@H]3COC[C@@H]3OCc3ccc(-c4ccc5c(c4)C(C)(C)CN5C4CCN(CCO)CC4)cc3)c2)cnn1C
5. Cn1cc(-c2cnc(N)c(C(=O)N[C@H]3COC[C@@H]3OCc3ccc(-c4ccc5c(ccn5C)c4)cc3)c2)cn1
6. Cn1cc(-c2cnc(N)c(C(=O)N[C@H]3CCC[C@@H]3OCc3ccc(-c4ccc5c(c4)CC(F)(F)[C@H]5N4CCN(CCO)CC4)cc3)c2)cn1

["< 0.01 µM", "> 1 µM", "< 0.01 µM", "< 0.01 µM", "0.01 to 0.1 µM", "0.01 to 0.1 µM"]

State the recorded IC50 for every item in the following list.
1. Cn1cc(-c2cnc(N)c(C(=O)N[C@H]3COC[C@@H]3OCc3ccc(-c4ccc5c(c4)CCC5N4CCN(CCO)CC4)cc3)c2)cn1 (stereo partly drawn)
2. Cn1ccc(-c2cc(C(=O)N[C@H]3CCC[C@@H]3OCc3ccc(-c4ccc5c(c4)CC(F)(F)C5N4CCN(CCO)CC4)cc3)cnc2N)cc1=O (stereo partly drawn)

1: 0.01 to 0.1 µM; 2: < 0.01 µM

State the recorded IC50 for every item in the following list.
1. Nc1ncc(-c2ccc(F)nc2)cc1C(=O)N[C@H]1CCC[C@@H]1OCc1ccc(-c2ccc3c(c2)CC[C@@H]3N2CCN(CCO)CC2)cc1
2. Cn1cc(-c2cnc(N)c(C(=O)N[C@H]3CCC[C@@H]3OCc3ccc(-c4cnc5c(c4)C(C)(C)CN5C4CCN(CCO)CC4)cc3)c2)cn1
3. Nc1ncc(-c2cccnc2F)cc1C(=O)N[C@H]1CCC[C@@H]1OCc1ccc(-c2ccc3c(c2)CC[C@@H]3N2CCN(CC(O)CO)CC2)cc1 (stereo partly drawn)
4. Nc1ncc(-c2cccnc2F)cc1C(=O)N[C@H]1CCC[C@@H]1OCc1ccc(-c2ccc3c(c2)CCC3N2CCN(CCO)CC2)cc1 (stereo partly drawn)
5. Cn1cc(-c2cnc(N)c(C(=O)N[C@H]3CCC[C@@H]3OCc3ccc(-c4ccc5c(c4)CCC5N4CCN(CC(O)CO)CC4)cc3)c2)cn1 (stereo partly drawn)
6. Cn1cc(-c2cnc(N)c(C(=O)N[C@H]3CCC[C@@H]3OCc3ccc(-c4ccc5c(c4)CCCN5C4CCN(CCO)CC4)cc3)c2)cn1

["< 0.01 µM", "< 0.01 µM", "< 0.01 µM", "< 0.01 µM", "< 0.01 µM", "< 0.01 µM"]

State the recorded IC50 for every item in the following list.
1. Cn1cc(-c2cnc(N)c(C(=O)N[C@H]3CCC[C@@H]3OCc3ccc(-c4ccc5c(c4)C(C)(C)C[C@@H]5N4CCN(C[C@H](O)CO)CC4)cc3)c2)cn1
2. CN1CC(C(=O)NC2Cc3ccc(-c4ccc(CO[C@H]5CCC[C@@H]5NC(=O)c5cc(-c6cnn(C)c6)cnc5N)cc4)cc3C2)C1 (stereo partly drawn)

1: < 0.01 µM; 2: 0.01 to 0.1 µM
